Target: CYP1A2 (Homo sapiens, UniProt P05177)
Construct: purchased Promega; host or cells: baculovirus-infected insect cells
Sequence (P05177 whole entry): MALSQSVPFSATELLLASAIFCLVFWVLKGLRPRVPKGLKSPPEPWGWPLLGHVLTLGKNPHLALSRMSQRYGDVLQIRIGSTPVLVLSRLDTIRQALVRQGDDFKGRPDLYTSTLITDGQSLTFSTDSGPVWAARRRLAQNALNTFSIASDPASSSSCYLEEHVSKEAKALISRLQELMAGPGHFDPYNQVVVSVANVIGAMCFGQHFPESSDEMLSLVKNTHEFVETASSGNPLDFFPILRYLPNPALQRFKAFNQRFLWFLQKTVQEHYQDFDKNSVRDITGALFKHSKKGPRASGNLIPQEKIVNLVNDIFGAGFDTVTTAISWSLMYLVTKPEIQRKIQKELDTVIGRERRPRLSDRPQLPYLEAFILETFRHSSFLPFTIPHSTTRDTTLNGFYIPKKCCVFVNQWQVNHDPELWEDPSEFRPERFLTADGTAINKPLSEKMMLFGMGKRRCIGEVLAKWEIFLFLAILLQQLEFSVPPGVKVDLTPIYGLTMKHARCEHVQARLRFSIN
Test: Cytochrome P450 assay (P450-Glo), isoform 1A2
Assay type: in vitro ADME
Settings: human; at 10 µM compound concentration; read-out: CYP 1A2 % residual activity
measure: activity at 10 µM (%)
Dear colleague, please return just the value in %, with no unit written.

Data request: Under CYP1A2 (Homo sapiens, UniProt P05177), report activity at 10 µM for `Nc1nc2ccc(C(=O)N(CCc3ccc(Cl)c(Cl)c3)c3ccccc3)cc2s1`
Data returned: 37.7

* * *

Test system: A549 cells
Test: Cytotoxicity against A549 cells (CellTiter-Glo)
Assay type: cell-based
measure: A549 cytotoxicity TGI (total growth inhibition)

1) Nc1nc2ccc(C(=O)NCCc3ccc(Cl)cc3)cc2s1; max
2) Nc1nc2ccc(C(=O)NCCc3ccc(Br)cc3)cc2s1; max
3) Nc1nc2ccc(C(=O)NCCc3ccccc3)cc2s1; max

Data provenance: paper PMC12516686
